Target: EGFR (human) (UniProt P00533)
Sequence (P00533 whole entry, looked up): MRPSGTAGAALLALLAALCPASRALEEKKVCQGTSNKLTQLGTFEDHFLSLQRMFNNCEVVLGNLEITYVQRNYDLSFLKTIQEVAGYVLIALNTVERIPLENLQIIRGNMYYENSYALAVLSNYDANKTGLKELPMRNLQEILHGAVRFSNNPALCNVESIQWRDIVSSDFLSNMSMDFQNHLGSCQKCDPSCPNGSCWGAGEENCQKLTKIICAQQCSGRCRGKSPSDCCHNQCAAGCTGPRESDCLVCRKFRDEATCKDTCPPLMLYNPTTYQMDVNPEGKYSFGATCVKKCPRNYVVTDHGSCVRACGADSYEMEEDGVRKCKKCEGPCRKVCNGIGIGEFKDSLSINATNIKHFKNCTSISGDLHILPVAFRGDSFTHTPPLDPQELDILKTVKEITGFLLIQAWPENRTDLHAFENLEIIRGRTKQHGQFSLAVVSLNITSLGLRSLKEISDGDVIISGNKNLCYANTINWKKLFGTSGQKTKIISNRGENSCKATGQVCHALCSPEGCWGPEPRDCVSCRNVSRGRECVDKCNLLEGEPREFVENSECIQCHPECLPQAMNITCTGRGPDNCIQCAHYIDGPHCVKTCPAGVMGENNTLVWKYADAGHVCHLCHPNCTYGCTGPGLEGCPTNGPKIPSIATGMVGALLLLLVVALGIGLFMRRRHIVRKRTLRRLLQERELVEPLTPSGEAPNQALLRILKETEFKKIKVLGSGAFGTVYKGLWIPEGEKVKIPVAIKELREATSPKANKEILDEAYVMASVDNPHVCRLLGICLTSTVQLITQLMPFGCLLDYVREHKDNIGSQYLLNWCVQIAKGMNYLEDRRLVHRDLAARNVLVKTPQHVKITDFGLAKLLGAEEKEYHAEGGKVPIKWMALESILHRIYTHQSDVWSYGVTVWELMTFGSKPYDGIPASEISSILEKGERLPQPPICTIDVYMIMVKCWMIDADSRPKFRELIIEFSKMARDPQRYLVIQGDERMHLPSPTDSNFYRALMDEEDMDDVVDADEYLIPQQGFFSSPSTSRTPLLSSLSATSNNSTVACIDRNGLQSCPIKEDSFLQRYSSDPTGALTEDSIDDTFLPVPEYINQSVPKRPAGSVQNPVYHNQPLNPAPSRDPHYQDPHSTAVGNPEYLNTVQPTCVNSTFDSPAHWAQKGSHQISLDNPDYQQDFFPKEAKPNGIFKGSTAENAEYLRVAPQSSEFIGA
Settings: a431
Listing of recorded IC50 by entry.
Form entry: value (nM) — number only.

Given the entry O=S1(=O)CCC(NCC(O)Cn2ccc(-c3ccc4ncnc(Nc5ccc6c(cnn6Cc6cccc(F)c6)c5)c4c3)c2)CC1 (stereo not given) , report its measured IC50.
922

----------
Listing of recorded log10 of IC50 by entry.
Target: EGFR (human)
Note: values are log10 of IC50 expressed in µM.

Given the entry CCN(CC)CC(O)Cn1ccc(-c2ccc3ncnc(Nc4ccc(OCc5cccc(F)c5)c(Cl)c4)c3c2)c1 (centres undefined) , report its measured log10 of IC50.
-1.64

Given the entry CC(C)(C)OC(=O)N1CCC(NCc2cc(-c3ccc4ncnc(Nc5ccc(OCc6cccc(F)c6)c(Cl)c5)c4c3)c[nH]2)CC1 , report its measured log10 of IC50.
-0.33

Given the entry CS(=O)(=O)CCNCC(O)Cn1ccc(-c2ccc3ncnc(Nc4ccc(OCc5cccc(F)c5)c(Cl)c4)c3c2)c1 (centres undefined) , report its measured log10 of IC50.
-1.77

Given the entry CN(C)Cc1cn(-c2ccc3ncnc(Nc4ccc(OCc5cccc(F)c5)c(Cl)c4)c3c2)cc1CCO , report its measured log10 of IC50.
-1.41

Given the entry CCN(CC)Cc1cn(-c2ccc3ncnc(Nc4ccc(OCc5ccccn5)c(Cl)c4)c3c2)cc1CCO , report its measured log10 of IC50.
-1.68

Given the entry CCN(CC)CCn1ccc(-c2ccc3ncnc(Nc4ccc5c(cnn5Cc5cccc(F)c5)c4)c3c2)c1 , report its measured log10 of IC50.
-2.22

Given the entry OC1CCN(CC(O)Cn2ccc(-c3ccc4ncnc(Nc5ccc6c(cnn6Cc6cccc(F)c6)c5)c4c3)c2)CC1 (centres undefined) , report its measured log10 of IC50.
-1.62

Given the entry CS(=O)(=O)CCNCc1cccn1-c1ccc2ncnc(Nc3ccc(OCc4cccc(F)c4)c(Cl)c3)c2c1 , report its measured log10 of IC50.
-1.92

Given the entry C=C(C)C(=O)Nc1cn(-c2ccc3ncnc(Nc4ccc(OCc5cccc(F)c5)c(Cl)c4)c3c2)cc1C(F)(F)F , report its measured log10 of IC50.
-2.30

----------
Molecular target: EGFR (human)
Conditions: a431
outcomeMeasure: IC50 (nM)
Form entry: value (nM) — number only.

Request - read-out IC50 | tested on EGFR (human) | compound Fc1cccc(COc2ccc(Nc3ncnc4ccc(-n5cc(CNCCCN6CCOCC6)c(C(F)(F)F)c5)cc34)cc2Cl)c1
310

Request - read-out IC50 | tested on EGFR (human) | compound OC(CNCCN1CCOCC1)Cn1ccc(-c2ccc3ncnc(Nc4ccc5c(cnn5Cc5cccc(F)c5)c4)c3c2)c1 (stereo not drawn)
714

----------
Target: EGFR (human)
outcomeMeasure: pIC50
# pIC50 is unitless: minus log10 of the molar concentration; print number only

Answered cases to consult:
[[record]]
compound = "Fc1cccc(COc2ccc(Nc3ncnc4ccc(-c5c[nH]c(CN6CCC(N7CCCCC7)CC6)c5)cc34)cc2Cl)c1"
systemtested = "EGFR (human)"
resultvalue = 7.18

[[record]]
compound = "Fc1cccc(COc2ccc(Nc3ncnc4ccc(-c5ccn(CCN6CCCCCC6)c5)cc34)cc2Cl)c1"
systemtested = "EGFR (human)"
resultvalue = 7.57

[[record]]
compound = "CCN(CC)CCNCc1ccn(-c2ccc3ncnc(Nc4ccc(OCc5cccc(F)c5)c(Cl)c4)c3c2)c1"
systemtested = "EGFR (human)"
resultvalue = 8.10

[[record]]
compound = "OC(CN1CCNCC1)Cn1ccc(-c2ccc3ncnc(Nc4ccc(OCc5cccc(F)c5)c(Cl)c4)c3c2)c1 (stereo unspecified)"
systemtested = "EGFR (human)"
resultvalue = 7.52

[[record]]
compound = "CCN(CC)CCNCc1cn(-c2ccc3ncnc(Nc4ccc(OCc5cccc(F)c5)c(Cl)c4)c3c2)cc1C(F)(F)F"
systemtested = "EGFR (human)"
resultvalue = 7.28


Given the entry CS(=O)(=O)CCNCc1ccn(-c2ccc3ncnc(Nc4ccc(OCc5cccc(F)c5)c(Cl)c4)c3c2)c1 , report its measured pIC50.
7.30

Given the entry OC(CN1CCN(Cc2ccncc2)CC1)Cn1ccc(-c2ccc3ncnc(Nc4ccc5c(cnn5Cc5cccc(F)c5)c4)c3c2)c1 (stereo unspecified) , report its measured pIC50.
6.22

Given the entry CS(=O)(=O)CCNCc1cn(-c2ccc3ncnc(Nc4ccc5c(cnn5Cc5cccc(F)c5)c4)c3c2)cc1CCO , report its measured pIC50.
7.60

Given the entry CN(C)CC=CC(=O)Nc1cn(-c2ccc3ncnc(Nc4ccc(OCc5cccc(F)c5)c(Cl)c4)c3c2)cc1C(F)(F)F , report its measured pIC50.
6.56

Given the entry O[C@@H](CNCc1cn(-c2ccc3ncnc(Nc4ccc(OCc5cccc(F)c5)c(Cl)c4)c3c2)cc1C(F)(F)F)CN1CCOCC1 , report its measured pIC50.
7.04

Given the entry Fc1cccc(Cn2ncc3cc(Nc4ncnc5ccc(-c6ccn(CCN7CCOCC7)c6)cc45)ccc32)c1 , report its measured pIC50.
8.22
